tested on: HT-29; experiment: In vitro cytotoxicity against HT29-human colon adenocarcinoma cells.; type: functional, cell-based
metric name: IC50

• CC(=O)O[C@@H]1C2=C(C)[C@@H](OC(=O)[C@H](O)[C@@H](NC(=O)OC34CC5CC(CC(C5)C3)C4)c3ccccc3)C[C@@](O)([C@@H](OC(=O)c3ccccc3)[C@@H]3[C@]4(OC(C)=O)CO[C@@H]4C[C@H](O)[C@@]3(C)[C@H]1O)C2(C)C = 2.8 ng/mL
• CC(=O)O[C@@H]1C2=C(C)[C@@H](OC(=O)[C@H](O)[C@@H](NC(=O)c3ccc(C)cc3)c3ccccc3)C[C@@](O)([C@@H](OC(=O)c3ccccc3)[C@@H]3[C@]4(OC(C)=O)CO[C@@H]4C[C@H](O)[C@@]3(C)[C@H]1O)C2(C)C = 12 ng/mL
• CC(=O)O[C@@H]1C2=C(C)[C@@H](OC(=O)[C@H](O)[C@@H](NC(=O)OCC(C)C)c3ccccc3)C[C@@](O)([C@@H](OC(=O)c3ccccc3)[C@@H]3[C@]4(OC(C)=O)CO[C@@H]4C[C@H](O)[C@@]3(C)[C@H]1O)C2(C)C = 2.3 ng/mL

Now let's try a different one.
# IC50 lookup, item CC(=O)O[C@@H]1C2=C(C)[C@@H](OC(=O)[C@H](O)[C@@H](NC(=O)c3ccc(OCc4ccccc4)cc3)c3ccccc3)C[C@@](O)([C@@H](OC(=O)c3ccccc3)[C@@H]3[C@]4(OC(C)=O)CO[C@@H]4C[C@H](O)[C@@]3(C)[C@H]1O)C2(C)C 8 ng/mL
